# Study System: CDK1 (Homo sapiens)
# Construct: purchased New England Biolabs, Beverly, Mass; 6020; host or cells: insect cells
# Sequence (P06493 whole entry): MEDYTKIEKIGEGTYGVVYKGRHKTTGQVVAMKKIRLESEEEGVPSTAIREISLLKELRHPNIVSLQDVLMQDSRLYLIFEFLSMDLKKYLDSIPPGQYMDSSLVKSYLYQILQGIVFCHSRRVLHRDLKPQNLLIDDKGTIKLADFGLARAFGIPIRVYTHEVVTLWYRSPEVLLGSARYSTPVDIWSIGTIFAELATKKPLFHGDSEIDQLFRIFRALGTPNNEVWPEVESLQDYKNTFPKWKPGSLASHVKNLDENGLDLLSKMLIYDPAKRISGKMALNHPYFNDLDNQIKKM
# Sequence (P14635 whole entry partner): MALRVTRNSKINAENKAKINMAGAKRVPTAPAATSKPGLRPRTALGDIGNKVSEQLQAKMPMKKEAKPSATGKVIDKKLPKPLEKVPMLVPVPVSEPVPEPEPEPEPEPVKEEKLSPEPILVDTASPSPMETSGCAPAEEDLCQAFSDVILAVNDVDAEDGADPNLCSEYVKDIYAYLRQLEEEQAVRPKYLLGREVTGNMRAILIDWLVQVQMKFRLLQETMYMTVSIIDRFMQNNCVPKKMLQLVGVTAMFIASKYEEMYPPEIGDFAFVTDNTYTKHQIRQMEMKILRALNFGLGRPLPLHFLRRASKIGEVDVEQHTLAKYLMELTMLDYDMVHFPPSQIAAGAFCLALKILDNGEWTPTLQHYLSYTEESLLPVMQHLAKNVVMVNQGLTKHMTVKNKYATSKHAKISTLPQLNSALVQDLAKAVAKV
# Assay Name: Biotinylated Peptide Substrate Assay, CDK1
# Assay type: biochemical
# Experimental Setup: read-out: CDK1 Kinase Assay (IC50 uM)
Endpoint Name: IC50 (µM)
Numbers only, in µM.

Consider the compound O=C1NC(=O)C2=C1c1cn(c3ccccc13)CCOCCOCCOCCn1cc2c2cccnc21 [Cpd 11] and give its measured IC50.
0.457

As a next step, examine the compound that follows.
Consider the compound O=C1NC(=O)C2=C1c1cn(c3ccccc13)CCOCCOCCn1cc2c2cccnc21 [Cpd 10] and give its measured IC50.
0.422

Numbers sourced from patent US6828327B2.
